- System: Trichophyton rubrum
- experiment: Minimum concentration required to inhibit the growth of Trichophyton rubrum
- Format: functional
quantity_measured: MIC (µM)
Please state the figure in µM; there is no need to write the unit.

The compound listed as CCCCOc1ccc(S(=O)(=O)N(Cc2c[nH]cn2)C(CC)C2CCCCC2)cc1 (configuration not stated) shows MIC equal to 1

The compound listed as O=S(=O)(c1ccc(CNCCc2ccc(Cl)cc2Cl)cc1)N(Cc1c[nH]cn1)CC1CCCCC1 shows MIC equal to 10

The compound listed as O=S(=O)(c1ccc(N2CCN(c3ccc(F)cc3)CC2)cc1)N(Cc1c[nH]cn1)CC1CCCCC1 shows MIC equal to 10

The compound listed as CCCCOc1ccc(S(=O)(=O)N(CCc2ccc(F)cc2)Cc2c[nH]cn2)cc1 shows MIC equal to 1

The compound listed as CC(C)C(C(C)C)N(Cc1c[nH]cn1)S(=O)(=O)c1ccc(-c2ccc(F)cc2)cc1 shows MIC equal to 1

---

- Test system: Aspergillus fumigatus
- experiment: Minimum concentration required to inhibit the growth of Aspergillus fumigatus
- Type: functional
quantity_measured: MIC (µM)
Please state the figure in µM; there is no need to write the unit.

So the reported MIC for CCC(C)n1ncn(-c2ccc(N3CCN(c4ccc(OCC5COC(Cn6cncn6)(c6ccc(Cl)cc6Cl)O5)cc4)CC3)cc2)c1=O (configuration not stated) , on Aspergillus fumigatus, turned out to be 1

So the reported MIC for C[C@@H](c1ncncc1F)[C@](O)(Cn1cncn1)c1ccc(F)cc1F , on Aspergillus fumigatus, turned out to be 1

So the reported MIC for CC(C)C(C(C)C)N(Cc1c[nH]cn1)S(=O)(=O)c1ccc(-c2ccc(F)cc2)cc1 , on Aspergillus fumigatus, turned out to be 10

---

Provide the reported MIC of each item.
- Tested on: Candida albicans
- experiment: Minimum concentration required to inhibit the growth of Candida albicans 2
- Type: functional

The compound listed as CCCCOc1ccc(S(=O)(=O)N(Cc2c[nH]cn2)C(CC)C2CCCCC2)cc1 (stereo not drawn) shows MIC equal to ≤ 0.1 µM

The compound listed as CC(C)C(C(C)C)N(Cc1c[nH]cn1)S(=O)(=O)c1ccc(-c2ccc(F)cc2)cc1 shows MIC equal to ≤ 0.1 µM

The compound listed as C[C@@H](c1ncncc1F)[C@](O)(Cn1cncn1)c1ccc(F)cc1F shows MIC equal to ≤ 0.1 µM

---

- System: Microsporum canis
- experiment: Minimum concentration required to inhibit the growth of […] canis
- Type: functional
Provide the reported MIC of each item.
Please state the figure in µM; there is no need to write the unit.

So the reported MIC for O=S(=O)(c1ccc(CNCCc2ccc(Cl)cc2Cl)cc1)N(Cc1c[nH]cn1)CC1CCCCC1 , on Microsporum canis, turned out to be 10

So the reported MIC for C[C@@H](c1ncncc1F)[C@](O)(Cn1cncn1)c1ccc(F)cc1F [VORICONAZOLE] , on Microsporum canis, turned out to be 1

So the reported MIC for CCCCOc1ccc(S(=O)(=O)N(CCc2ccc(F)cc2)Cc2c[nH]cn2)cc1 , on Microsporum canis, turned out to be 10

So the reported MIC for O=S(=O)(c1ccc(N2CCN(c3ccc(F)cc3)CC2)cc1)N(Cc1c[nH]cn1)CC1CCCCC1 , on Microsporum canis, turned out to be 10

So the reported MIC for CCCCOc1ccc(S(=O)(=O)N(Cc2c[nH]cn2)C(CC)C2CCCCC2)cc1 (configuration not stated) , on Microsporum canis, turned out to be 1

So the reported MIC for CC(C)C(C(C)C)N(Cc1c[nH]cn1)S(=O)(=O)c1ccc(-c2ccc(F)cc2)cc1 , on Microsporum canis, turned out to be 1
